# measurement-target: B-RAF G466V (Homo sapiens, UniProt P15056, G466V)
# Construct: expressed in transfected cells; host or cells: T-Rex 293 cells (Invitrogen #R71007)
# Sequence (P15056 whole entry G466V): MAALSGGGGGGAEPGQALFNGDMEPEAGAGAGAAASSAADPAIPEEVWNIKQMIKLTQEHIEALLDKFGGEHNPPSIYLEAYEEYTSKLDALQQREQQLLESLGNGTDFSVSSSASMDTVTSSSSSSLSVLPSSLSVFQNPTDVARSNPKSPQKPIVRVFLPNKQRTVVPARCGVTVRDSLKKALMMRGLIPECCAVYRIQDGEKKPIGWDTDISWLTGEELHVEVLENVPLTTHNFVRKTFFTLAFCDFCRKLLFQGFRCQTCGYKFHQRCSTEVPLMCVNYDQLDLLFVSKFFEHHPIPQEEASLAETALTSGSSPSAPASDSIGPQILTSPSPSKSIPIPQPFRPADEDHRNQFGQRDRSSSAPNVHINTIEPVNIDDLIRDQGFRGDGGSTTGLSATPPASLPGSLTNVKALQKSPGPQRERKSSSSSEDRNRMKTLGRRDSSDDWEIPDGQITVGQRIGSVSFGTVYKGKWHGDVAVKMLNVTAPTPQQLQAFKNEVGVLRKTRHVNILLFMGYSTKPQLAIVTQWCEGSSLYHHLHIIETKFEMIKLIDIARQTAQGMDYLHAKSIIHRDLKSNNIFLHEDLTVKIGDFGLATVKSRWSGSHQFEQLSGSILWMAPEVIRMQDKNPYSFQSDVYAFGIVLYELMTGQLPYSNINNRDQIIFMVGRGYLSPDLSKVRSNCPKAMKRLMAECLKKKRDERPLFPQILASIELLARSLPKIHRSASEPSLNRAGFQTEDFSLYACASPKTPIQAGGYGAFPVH
# experiment-description: Target protein degradation, assay D: T-Rex 293 cells, HA-BRAF_G466V, 384 well format
# Type: cell-based
# test-context: T-REx-293, Assay D, T-Rex 293 HA-BRAF_G466V cells, 24 hours, Examples 83-269
# Protocol: D. T-Rex 293 Cells (384 Well Format) T-Rex 293 cells were purchased from Invitrogen (#R71007), and stably transfected with a pcDNA4/TO_HA-BRAF_G466V construct, using 400 ug Zeocin for selection. […] BRAF intensity is quantified in HCS Studio software (ThermoFisher), using a custom script, exported, analyzed using KNIME, and curve curation is performed in an ELN (Scilligence). Cell toxicity is measured via comparing number of nuclei in PROTAC treated wells to DMSO controls. […]
Listing: Dmax of selected molecules

As a guide, the following entries are already answered.
- molecule: "N#Cc1c(NS(=O)(=O)N2CC[C@@H](F)C2)ccc(F)c1Oc1ccc2ncn(-c3ccc(N4CCN(CC5CC6(C5)CN(c5ccc7c(c5)CN([C@H]5CCC(=O)NC5=O)C7=O)C6)CC4)cc3)c(=O)c2c1"
  result: "≥ 70%"
- molecule: "CN(c1ccc2c(c1)CN([C@@H]1CCC(=O)NC1=O)C2=O)[C@H]1CC[C@H](N2CCN(c3ccc(-n4cnc5ccc(Oc6c(F)ccc(NS(=O)(=O)N7CC[C@@H](F)C7)c6C#N)cc5c4=O)cc3)CC2)CC1"
  result: "35 to 70%"
- molecule: "N#Cc1c(NS(=O)(=O)N2CC[C@@H](F)C2)ccc(F)c1Oc1ccc2ncn(-c3cnc(C4(N5CCN(CC6CN(c7ccc(NC8CCC(=O)NC8=O)cc7F)C6)CC5)CC4)nc3)c(=O)c2c1 (some centres unmarked)"
  result: "≤ 35%"
- molecule: "N#Cc1c(NS(=O)(=O)N2CC[C@@H](F)C2)ccc(F)c1Oc1ccc2ncn(-c3cnc(N4CCC(C5CN(c6ccc7c(c6)C(=O)N(C6CCC(=O)NC6=O)C7=O)C5)CC4)nc3)c(=O)c2c1 (some centres unmarked)"
  result: "≤ 35%"

Now consider a different molecule.
Query: Determine from records and report Dmax for CN(c1ccc(-n2cnc3ccc(Oc4c(F)ccc(NS(=O)(=O)N5CC[C@@H](F)C5)c4C#N)cc3c2=O)cc1)C1CCC(N2CCN(c3ccc4c(c3)CN([C@H]3CCC(=O)NC3=O)C4=O)CC2)CC1 (some centres unmarked)
Result: 35 to 70%

---

# measurement-target: B-RAF V600E (Homo sapiens, UniProt P15056, V600E)
# Construct: expressed in transfected cells; host or cells: T-Rex 293 cells (Invitrogen #R71007)
# Sequence (P15056 whole entry V600E): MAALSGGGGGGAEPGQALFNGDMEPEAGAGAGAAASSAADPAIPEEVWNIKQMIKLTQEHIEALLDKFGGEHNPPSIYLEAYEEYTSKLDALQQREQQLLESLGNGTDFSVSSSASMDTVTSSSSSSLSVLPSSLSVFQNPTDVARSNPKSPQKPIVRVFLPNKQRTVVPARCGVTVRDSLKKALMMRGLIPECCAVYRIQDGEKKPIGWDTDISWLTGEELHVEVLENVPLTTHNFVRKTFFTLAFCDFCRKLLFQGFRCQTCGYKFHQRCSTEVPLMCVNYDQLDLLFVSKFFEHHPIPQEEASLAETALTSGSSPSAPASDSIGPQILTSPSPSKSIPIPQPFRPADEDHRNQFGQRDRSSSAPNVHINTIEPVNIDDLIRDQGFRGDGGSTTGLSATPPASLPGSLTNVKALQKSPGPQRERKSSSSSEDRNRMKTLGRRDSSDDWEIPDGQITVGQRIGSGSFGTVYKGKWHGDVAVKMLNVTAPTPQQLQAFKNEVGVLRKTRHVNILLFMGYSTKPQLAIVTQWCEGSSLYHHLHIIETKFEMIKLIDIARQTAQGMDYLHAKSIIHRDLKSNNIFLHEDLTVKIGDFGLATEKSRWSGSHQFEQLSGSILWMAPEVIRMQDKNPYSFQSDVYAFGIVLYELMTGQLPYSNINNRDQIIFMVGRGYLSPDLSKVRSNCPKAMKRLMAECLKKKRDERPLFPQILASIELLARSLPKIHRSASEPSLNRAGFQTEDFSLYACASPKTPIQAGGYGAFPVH
# experiment-description: Target protein degradation, assay C: T-Rex 293 cells, HA-BRAF_V600E, 384 well format
# Format: cell-based
# test-context: T-REx-293, Assay C, T-Rex 293 HA-BRAF_V600E cells, 24 hours, Examples 83-269
Recorded Dmax, one value per entry.

- compound: "C[C@H]1CN(CC2CCN(c3ccc4c(c3F)CN([C@H]3CCC(=O)NC3=O)C4=O)CC2)CCN1c1ccc(-n2cnc3ccc(Oc4c(F)ccc(NS(=O)(=O)N5CC[C@@H](F)C5)c4C#N)cc3c2=O)nc1"
  result: "≤ 35%"
- compound: "N#Cc1c(NS(=O)(=O)N2CC[C@@H](F)C2)ccc(F)c1Oc1ccc2ncn(-c3ccc(N4CCC(CN5CC6(C5)CN(c5ccc7c(c5)CN(C5CCC(=O)NC5=O)C7=O)C6)CC4)cc3)c(=O)c2c1 (some centres unmarked)"
  result: "35 to 70%"
- compound: "N#Cc1c(NS(=O)(=O)N2CC[C@@H](F)C2)ccc(F)c1Oc1ccc2ncn(-c3ccc(N4CC5(CC(CN6CCC(c7ccc8c(c7)CN(C7CCC(=O)NC7=O)C8=O)CC6)C5)C4)cc3)c(=O)c2c1 (some centres unmarked)"
  result: "35 to 70%"
- compound: "N#Cc1c(NS(=O)(=O)N2CC[C@@H](F)C2)ccc(F)c1Oc1ccc2ncn(-c3ccc(N4CCC(CN5CCN(CC6CCN(c7ccc8c(c7)C(=O)N(C7CCC(=O)NC7=O)C8=O)CC6)CC5)CC4)nc3)c(=O)c2c1 (some centres unmarked)"
  result: "35 to 70%"

Query: Give the measured Dmax for COc1ccc(N2CCC(CN3CCN(c4ccc(-n5cnc6ccc(Oc7c(F)ccc(NS(=O)(=O)N8CC[C@@H](F)C8)c7C#N)cc6c5=O)cn4)CC3)CC2)cc1C(=O)NC1CCC(=O)NC1=O (some centres unmarked)
Result: ≤ 35%

---

# measurement-target: B-RAF G466V (Homo sapiens, UniProt P15056, G466V)
# Construct: expressed in transfected cells; host or cells: T-Rex 293 cells (Invitrogen #R71007)
# experiment-description: Target protein degradation, assay D: T-Rex 293 cells, HA-BRAF_G466V, 384 well format
# Format: cell-based
# test-context: Assay D, T-Rex 293 HA-BRAF_G466V cells, 24 hours, Examples 83-269
quantity-name: DC50

- molecule: "N#Cc1c(NS(=O)(=O)N2CC[C@@H](F)C2)ccc(F)c1Oc1ccc2ncn(-c3ccc(N4CCC(CN5CCN(CC6CCN(c7ccc8c(c7)CN([C@H]7CCC(=O)NC7=O)C8=O)CC6)CC5)CC4)cc3)c(=O)c2c1"
  DC50: "10 to 30 nM"

# ---- query molecule ----
Query: Entry N#Cc1c(NS(=O)(=O)N2CC[C@@H](F)C2)ccc(F)c1Oc1ccc2ncn(-c3ccc(N4CC5(CN(CC6CCN(c7cccc8c7C(=O)N(C7CCC(=O)NC7=O)C8=O)CC6)C5)C4)nc3)c(=O)c2c1 (some centres unmarked) needs its DC50 filled in; supply it.
Result: 1 to 10 nM

---

# measurement-target: B-RAF G466V (Homo sapiens, UniProt P15056, G466V)
# Construct: expressed in transfected cells; host or cells: T-Rex 293 cells (Invitrogen #R71007)
# experiment-description: Target protein degradation, assay D: T-Rex 293 cells, HA-BRAF_G466V, 384 well format
# Format: cell-based
# test-context: Assay D, T-Rex 293 HA-BRAF_G466V cells, 24 hours, Examples 83-269
quantity-name: DC50

Below: 3 compounds and their reported DC50.
- compound: "COc1ccc(N2CCC(CN3CCN(c4ccc(-n5cnc6ccc(Oc7c(F)ccc(NS(=O)(=O)N8CC[C@@H](F)C8)c7C#N)cc6c5=O)cn4)CC3)CC2)cc1C(=O)NC1CCC(=O)NC1=O (stereo partly shown)"
  measurement-target: "B-RAF G466V (Homo sapiens, UniProt P15056, G466V)"
  result: "1 to 10 nM"
- compound: "N#Cc1c(NS(=O)(=O)N2CC[C@@H](F)C2)ccc(F)c1Oc1ccc2ncn(-c3ccc(N4CCN(c5cc(N6CCN(c7ccc8c(c7)C(=O)N(C7CCC(=O)NC7=O)C8=O)CC6)ncn5)CC4)nc3)c(=O)c2c1 (stereo partly shown)"
  measurement-target: "B-RAF G466V (Homo sapiens, UniProt P15056, G466V)"
  result: "10 to 30 nM"
- compound: "N#Cc1c(NS(=O)(=O)N2CC[C@@H](F)C2)ccc(F)c1Oc1ccc2ncn(-c3ccc(N4CCC(CN5CC6(CC(c7ccc8c(c7)CN(C7CCC(=O)NC7=O)C8=O)C6)C5)CC4)cc3)c(=O)c2c1 (stereo partly shown)"
  measurement-target: "B-RAF G466V (Homo sapiens, UniProt P15056, G466V)"
  result: "1 to 10 nM"

Kindly consider the entry below.
Query: Report its DC50 with B-RAF G466V (Homo sapiens, UniProt P15056, G466V) as the test system: N#Cc1c(NS(=O)(=O)N2CC[C@@H](F)C2)ccc(F)c1Oc1ccc2ncn(-c3ccc(N4CCN(C(=O)C5CCN(c6ccc7c(c6)CN(C6CCC(=O)NC6=O)C7=O)CC5)CC4)cc3)c(=O)c2c1 (single isomer, unassigned) [Example 242]
Result: 10 to 30 nM

---

# measurement-target: B-RAF V600E (Homo sapiens, UniProt P15056, V600E)
# Construct: expressed in transfected cells; host or cells: T-Rex 293 cells (Invitrogen #R71007)
# experiment-description: Target protein degradation, assay C: T-Rex 293 cells, HA-BRAF_V600E, 384 well format
# Type: cell-based
# test-context: Assay C, T-Rex 293 HA-BRAF_V600E cells, 24 hours, Examples 83-269
DC50 values, listed per item

- compound: "N#Cc1c(NS(=O)(=O)N2CC[C@@H](F)C2)ccc(F)c1Oc1ccc2ncn(-c3ccc(N4CCC(CN5CCN(CC6CCN(c7ccc8c(c7)C(=O)N(C7CCC(=O)NC7=O)C8=O)CC6)CC5)CC4)nc3)c(=O)c2c1 (some centres unmarked) [Example 147]"
  measurement-target: "B-RAF V600E (Homo sapiens, UniProt P15056, V600E)"
  DC50: "5 to 50 nM"

Query: State its DC50: N#Cc1c(NS(=O)(=O)N2CC[C@@H](F)C2)ccc(F)c1Oc1ccc2ncn(-c3ccc(N4CCN(CC5CCN(c6ccc(C7CCC(=O)NC7=O)cn6)CC5)CC4)cc3)c(=O)c2c1 (some centres unmarked) [Example 91]
Result: 5 to 50 nM

Query: Check the records and state DC50 for N#Cc1c(NS(=O)(=O)N2CC[C@H](F)C2)ccc(F)c1Oc1ccc2ncn(-c3ccc(N4CCN(CC5CN(c6ccc7c(c6)CN([C@H]6CCC(=O)NC6=O)C7=O)C5)CC4)cc3)c(=O)c2c1 [Example 195]
Result: 50 to 500 nM

Query: Check the records and state DC50 for N#Cc1c(NS(=O)(=O)N2CC[C@@H](F)C2)ccc(F)c1Oc1ccc2ncn(-c3ccc(N4CCC5(CC4)CN(CC4CCN(c6ccc7c(c6)CN([C@@H]6CCC(=O)NC6=O)C7=O)CC4)C5)cc3)c(=O)c2c1 [Example 203]
Result: 50 to 500 nM

Query: Please give measured DC50 of the following entry: C[C@H]1CN(CC2CCN(c3ccc4c(c3F)CN([C@@H]3CCC(=O)NC3=O)C4=O)CC2)CCN1c1ccc(-n2cnc3ccc(Oc4c(F)ccc(NS(=O)(=O)N5CC[C@@H](F)C5)c4C#N)cc3c2=O)cc1 [Example 118]
Result: > 500 nM
